B1: Ankyrin-3, residues 4094 to 4171; numbered along this chain, Q12955 (parent)
chain: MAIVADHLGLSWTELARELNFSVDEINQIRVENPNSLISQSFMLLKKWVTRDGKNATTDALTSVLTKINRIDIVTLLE

- Variants of: B1
- experimental details: abundance fitness (aPCA) (normalised: wild type 0, dead -1); higher = more abundant; growth selection in yeast, the domain comes from the species named
- experimental context: Homo sapiens
Recorded abundance fitness by entry
The reply should be a number, written without any unit.

S63I = -0.287
W48Q = -0.808
V74R = -0.827
L37R = -0.526
E32I = -0.621
I73M = -0.503
E25F = -0.771
L45P = -0.92
T75E = 0.079
K67V = -0.276

Given the entry "F21Y" , report its measured abundance fitness.
-0.358

Now the same for "L65D"
0.076

Now the same for "I26Q"
-0.594
